System: LXRa:RXRa (NR concentration 270 nM, RXRa partner concentration 90 nM)
Assay: PBM binding z-score (relative to random genomic background probes); higher = stronger binding; sequences stand for … in GC…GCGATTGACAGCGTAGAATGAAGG
readout_label: PBM binding z-score
The response must contain the number and no unit.

INSERT INTO assay_data (record_sequence, readout_label, experimental_result) VALUES
  ('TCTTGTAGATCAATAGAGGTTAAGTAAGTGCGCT', 'PBM binding z-score', 3.63),
  ('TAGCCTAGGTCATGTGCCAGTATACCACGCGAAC', 'PBM binding z-score', 3.24),
  ('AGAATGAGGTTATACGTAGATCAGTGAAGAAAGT', 'PBM binding z-score', 1.82),
  ('GCTAGCAGGCCATTTGGGCCACTCAATGACGGGC', 'PBM binding z-score', -0.935);

Reported PBM binding z-score (LXRa:RXRa (NR concentration 270 nM, RXRa partner concentration 90 nM)) for entry GCAGACAGGTTAAACGCAGGTAACTCAGGGTGGC is 1.65

Reported PBM binding z-score (LXRa:RXRa (NR concentration 270 nM, RXRa partner concentration 90 nM)) for entry AATATAGGGTCATCGTAGGCCAGAGTACGCACAG is 6.66

Reported PBM binding z-score (LXRa:RXRa (NR concentration 270 nM, RXRa partner concentration 90 nM)) for entry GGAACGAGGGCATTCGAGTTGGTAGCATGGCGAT is 0.72

Reported PBM binding z-score (LXRa:RXRa (NR concentration 270 nM, RXRa partner concentration 90 nM)) for entry ACTAGCAGGCCAGGTTTGGGTCACTCAAACAAAG is -0.164

Reported PBM binding z-score (LXRa:RXRa (NR concentration 270 nM, RXRa partner concentration 90 nM)) for entry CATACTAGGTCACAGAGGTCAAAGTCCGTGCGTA is 6.83

Reported PBM binding z-score (LXRa:RXRa (NR concentration 270 nM, RXRa partner concentration 90 nM)) for entry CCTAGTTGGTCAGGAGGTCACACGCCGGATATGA is 3.32

Reported PBM binding z-score (LXRa:RXRa (NR concentration 270 nM, RXRa partner concentration 90 nM)) for entry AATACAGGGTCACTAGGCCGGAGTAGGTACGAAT is 5.1

Reported PBM binding z-score (LXRa:RXRa (NR concentration 270 nM, RXRa partner concentration 90 nM)) for entry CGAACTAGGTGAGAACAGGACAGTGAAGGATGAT is -0.292

###

In this section, each of the sequences is paired with its reported PBM binding z-score.
System: PPARg:RXRa 30nM:10nM, anti-RXR (NR concentration 30 nM, RXRa partner concentration 10 nM)
Assay: PBM binding z-score (relative to random genomic background probes); higher = stronger binding; sequences stand for … in GC…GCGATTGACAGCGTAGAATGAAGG
The response must contain the number and no unit.

INSERT INTO assay_data (record_sequence, experimental_result) VALUES
  ('CCGACTGGGGCAGAAAGGATACCATACCATCCGG', -0.593),
  ('GCTGCTAGGTCAGTTTGGTCAGCTAACGGGTACG', -0.304),
  ('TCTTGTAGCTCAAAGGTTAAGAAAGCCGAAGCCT', 4.64),
  ('CCGACTGGGGGAAAGGTTACCATACTCAGTACGA', 8.87),
  ('ACTATTTGTTGACTTAGGGCAACCGATACGACGC', 0.434),
  ('CCGACTGGGGCAGAACGGTTACCATACCATCCGG', -0.36),
  ('TCGAGTAGGTTACCACTGGGGCATTCAGCTTTCT', 0.971),
  ('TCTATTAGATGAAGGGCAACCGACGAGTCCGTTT', 3.7);

PBM binding z-score in this record for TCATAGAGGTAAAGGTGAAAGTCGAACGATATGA : 3.97

PBM binding z-score in this record for ATATGTAGGTTACATCCGGGTCATTCAGGCTATG : 2.54

PBM binding z-score in this record for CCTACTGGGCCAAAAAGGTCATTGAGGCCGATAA : 1.27

PBM binding z-score in this record for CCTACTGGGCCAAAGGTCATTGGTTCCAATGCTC : 10.5
